# tgt: F508delCFTR (Homo sapiens, UniProt P13569, DEL508-508)
# Construct: expressed in transfected cells; host or cells: CFBE41o- human lung derived epithelial cells (CFBE41o-F508delCFTR-HRP), doxycycline-inducible
# Sequence (P13569 with tags, fused parts or gaps DEL508-508): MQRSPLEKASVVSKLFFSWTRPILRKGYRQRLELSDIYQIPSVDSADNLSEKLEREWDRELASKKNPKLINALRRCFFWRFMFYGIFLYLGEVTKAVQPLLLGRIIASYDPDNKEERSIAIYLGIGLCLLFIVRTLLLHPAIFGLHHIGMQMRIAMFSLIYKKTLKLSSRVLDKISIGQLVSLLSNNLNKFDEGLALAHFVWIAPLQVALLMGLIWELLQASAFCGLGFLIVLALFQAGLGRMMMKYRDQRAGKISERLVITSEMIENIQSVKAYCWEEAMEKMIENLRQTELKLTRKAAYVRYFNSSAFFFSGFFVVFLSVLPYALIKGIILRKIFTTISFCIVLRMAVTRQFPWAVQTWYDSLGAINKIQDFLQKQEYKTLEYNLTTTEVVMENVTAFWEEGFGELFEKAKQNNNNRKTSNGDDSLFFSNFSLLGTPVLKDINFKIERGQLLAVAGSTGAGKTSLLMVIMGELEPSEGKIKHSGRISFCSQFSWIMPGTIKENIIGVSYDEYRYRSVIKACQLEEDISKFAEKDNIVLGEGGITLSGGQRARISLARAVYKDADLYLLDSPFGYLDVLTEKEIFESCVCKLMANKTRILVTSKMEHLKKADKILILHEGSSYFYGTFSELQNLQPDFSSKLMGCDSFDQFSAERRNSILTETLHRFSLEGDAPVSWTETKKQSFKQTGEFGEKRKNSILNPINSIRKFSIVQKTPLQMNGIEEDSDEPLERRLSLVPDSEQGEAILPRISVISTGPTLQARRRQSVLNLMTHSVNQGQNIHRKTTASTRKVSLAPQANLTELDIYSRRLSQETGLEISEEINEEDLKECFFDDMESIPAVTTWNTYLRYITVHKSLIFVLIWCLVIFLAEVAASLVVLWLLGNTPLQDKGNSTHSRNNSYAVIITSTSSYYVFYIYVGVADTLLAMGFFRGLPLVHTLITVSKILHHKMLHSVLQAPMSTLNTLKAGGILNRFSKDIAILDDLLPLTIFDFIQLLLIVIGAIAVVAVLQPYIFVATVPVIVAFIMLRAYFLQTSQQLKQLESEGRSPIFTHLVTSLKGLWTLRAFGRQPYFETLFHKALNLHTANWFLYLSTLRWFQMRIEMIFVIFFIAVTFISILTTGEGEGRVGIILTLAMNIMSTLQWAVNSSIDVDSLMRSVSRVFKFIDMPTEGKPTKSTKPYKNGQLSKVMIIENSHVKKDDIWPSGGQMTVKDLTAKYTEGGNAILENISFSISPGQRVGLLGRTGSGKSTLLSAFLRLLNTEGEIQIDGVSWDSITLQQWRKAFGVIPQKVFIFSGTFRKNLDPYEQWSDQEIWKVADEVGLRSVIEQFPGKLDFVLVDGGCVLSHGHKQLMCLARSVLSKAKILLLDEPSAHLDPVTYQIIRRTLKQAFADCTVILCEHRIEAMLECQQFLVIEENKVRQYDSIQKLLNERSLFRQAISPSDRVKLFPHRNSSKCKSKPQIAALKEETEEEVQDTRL
# assay protocol: Cell Surface Expression-Horse Radish Peroxidase (CSE-HRP) Assay
# Format: cell-based
# test context: test compound alone, without co-corrector; read-out: EC50 (without co-corrector)
pEC50: −log10 of the molar value.
parameter: pEC50

Example cases with answers are listed next.
test smiles: CCCS(=O)(=O)NC(=O)C1(c2cccc(OC)c2)CCOCC1
pEC50: < 5.00
--
test smiles: CCOCC(C)(C)c1ccc(OC)c(C2(C(=O)NS(=O)(=O)c3cccc4nc(C)ccc34)CC2)c1
pEC50: > 5.52
--
test smiles: COc1ccc(C2CCC2)cc1C1(C(=O)NS(=O)(=O)c2cccc3ncn(C)c23)CCC1
pEC50: > 5.52
--
test smiles: CC(C)Oc1cnc(C2CCC2)cc1C1(C(=O)NS(=O)(=O)c2cccc3ncccc23)CC1
pEC50: 5.00 to 5.52
--
test smiles: Cc1ccc(OC(F)F)c(C2(C(=O)NS(=O)(=O)c3cccc4nc(C)ccc34)CC2)c1
pEC50: > 5.52

Could you share which pEC50 value was measured for Cc1ccc(S(=O)(=O)NC(=O)C2(c3cccc(Cl)c3)CC2)nc1 ?
< 5.00

Looking for the measured pEC50 of CCOc1ccc(C2(OC)CCC2)cc1C1(C(=O)NS(=O)(=O)c2cccc3nc(C)ccc23)CC1 , can you help?
> 5.52

// pEC50 lookup, key: COc1ccc(C2CC2)cc1C1(C(=O)NS(=O)(=O)c2cccc3nc(C)ccc23)CC1
> 5.52

Numbers sourced from patent US10829473B2.
